System: Escherichia coli TOP10
Assay: shrunken log2 fold change of peptide-encoding DNA abundance (4.5 h post-induction vs induction); higher = less antimicrobial activity (less host growth inhibition)
Conditions: time post-induction: 4.5 h; library: site-saturation at positions 5, 18, 19, 20
Output class 1 for shrunken log2 fold change not less than -0.05; output class 0 otherwise.

Can `RRIRFRPPRLPRPRPRPCMAPRP` be said to have shrunken log2 fold change at or above -0.05?
class 0

Can `RRIRRRPPRLPRPRPRPIPAPRP` be said to have shrunken log2 fold change at or above -0.05?
class 1

Can `RRIRFRPPRLPRPRPRPFGWPRP` be said to have shrunken log2 fold change at or above -0.05?
class 1

Can `RRIRSRPPRLPRPRPRPNWGPRP` be said to have shrunken log2 fold change at or above -0.05?
class 0

Can `RRIRMRPPRLPRPRPRPFYGPRP` be said to have shrunken log2 fold change at or above -0.05?
class 1

Can `RRIRHRPPRLPRPRPRPFTDPRP` be said to have shrunken log2 fold change at or above -0.05?
class 0

Can `RRIRTRPPRLPRPRPRPCPTPRP` be said to have shrunken log2 fold change at or above -0.05?
class 1

Can `RRIRLRPPRLPRPRPRPDLCPRP` be said to have shrunken log2 fold change at or above -0.05?
class 1

Can `RRIRGRPPRLPRPRPRPTRWPRP` be said to have shrunken log2 fold change at or above -0.05?
class 1

Can `RRIRYRPPRLPRPRPRPVPYPRP` be said to have shrunken log2 fold change at or above -0.05?
class 0

Can `RRIRDRPPRLPRPRPRPTDYPRP` be said to have shrunken log2 fold change at or above -0.05?
class 0

Can `RRIRRRPPRLPRPRPRPHDSPRP` be said to have shrunken log2 fold change at or above -0.05?
class 0

Can `RRIRQRPPRLPRPRPRPMQCPRP` be said to have shrunken log2 fold change at or above -0.05?
class 0

Can `RRIRERPPRLPRPRPRPLSYPRP` be said to have shrunken log2 fold change at or above -0.05?
class 0

Can `RRIRIRPPRLPRPRPRPCQNPRP` be said to have shrunken log2 fold change at or above -0.05?
class 0

Can `RRIRDRPPRLPRPRPRPADIPRP` be said to have shrunken log2 fold change at or above -0.05?
class 1

Can `RRIRIRPPRLPRPRPRPFVLPRP` be said to have shrunken log2 fold change at or above -0.05?
class 0

Can `RRIRARPPRLPRPRPRPMIYPRP` be said to have shrunken log2 fold change at or above -0.05?
class 1

Can `RRIRRRPPRLPRPRPRPRWVPRP` be said to have shrunken log2 fold change at or above -0.05?
class 1

* * *

System: Escherichia coli TOP10;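 further: peptides expressed intracellularly from a pBAD plasmid library in pooled LB shake-flask culture, induced with 0.3% L-arabinose, DNA abundance read by NGS, three biological replicates, DESeq2 with apeglm shrinkage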
Experiment: shrunken log2 fold change of peptide-encoding DNA abundance (4.5 h post-induction vs induction); higher = less antimicrobial activity (less host growth inhibition)
Conditions: time post-induction: 4.5 h; library: site-saturation at positions 5, 18, 19, 20
Quantity Name: shrunken log2 fold change
Answer with the value's number alone.

`RRIRFRPPRLPRPRPRPGRIPRP` yielded shrunken log2 fold change of 0.0413

`RRIRARPPRLPRPRPRPTRIPRP` yielded shrunken log2 fold change of 2.82

`RRIRQRPPRLPRPRPRPNTLPRP` yielded shrunken log2 fold change of 0.013

`RRIRPRPPRLPRPRPRPKIMPRP` yielded shrunken log2 fold change of -0.437

`RRIRRRPPRLPRPRPRPDTMPRP` yielded shrunken log2 fold change of 0.0801

`RRIRSRPPRLPRPRPRPIYWPRP` yielded shrunken log2 fold change of -0.0771

`RRIRLRPPRLPRPRPRPMQEPRP` yielded shrunken log2 fold change of 0.244

`RRIRARPPRLPRPRPRPFEYPRP` yielded shrunken log2 fold change of -0.0276

`RRIRSRPPRLPRPRPRPARKPRP` yielded shrunken log2 fold change of 0.213

`RRIRPRPPRLPRPRPRPHTYPRP` yielded shrunken log2 fold change of -0.942

`RRIRPRPPRLPRPRPRPTHGPRP` yielded shrunken log2 fold change of 0.478

`RRIRRRPPRLPRPRPRPRNPPRP` yielded shrunken log2 fold change of 0.345

`RRIRVRPPRLPRPRPRPRGLPRP` yielded shrunken log2 fold change of 0.307

`RRIRKRPPRLPRPRPRPMHKPRP` yielded shrunken log2 fold change of 0.351

`RRIRHRPPRLPRPRPRPQWGPRP` yielded shrunken log2 fold change of -0.149

`RRIRDRPPRLPRPRPRPQQVPRP` yielded shrunken log2 fold change of 0.0253

`RRIRLRPPRLPRPRPRPGMNPRP` yielded shrunken log2 fold change of -0.72

`RRIRFRPPRLPRPRPRPDMMPRP` yielded shrunken log2 fold change of -0.0389

`RRIRPRPPRLPRPRPRPNSSPRP` yielded shrunken log2 fold change of -0.396

`RRIRMRPPRLPRPRPRPQTHPRP` yielded shrunken log2 fold change of 0.318

`RRIRCRPPRLPRPRPRPRCVPRP` yielded shrunken log2 fold change of -0.0609

`RRIRQRPPRLPRPRPRPFVIPRP` yielded shrunken log2 fold change of -0.131

`RRIRPRPPRLPRPRPRPAISPRP` yielded shrunken log2 fold change of -0.103

`RRIRPRPPRLPRPRPRPILYPRP` yielded shrunken log2 fold change of -0.299

`RRIRHRPPRLPRPRPRPKVWPRP` yielded shrunken log2 fold change of 0.331

`RRIRTRPPRLPRPRPRPNVEPRP` yielded shrunken log2 fold change of -0.00865

`RRIRIRPPRLPRPRPRPYCYPRP` yielded shrunken log2 fold change of -0.0959

`RRIRIRPPRLPRPRPRPMQWPRP` yielded shrunken log2 fold change of -0.192

`RRIRYRPPRLPRPRPRPPSGPRP` yielded shrunken log2 fold change of 0.0974

`RRIRERPPRLPRPRPRPRKNPRP` yielded shrunken log2 fold change of -0.0182

`RRIRTRPPRLPRPRPRPLEKPRP` yielded shrunken log2 fold change of 0.419

`RRIRTRPPRLPRPRPRPTKFPRP` yielded shrunken log2 fold change of -0.638

`RRIRMRPPRLPRPRPRPHHMPRP` yielded shrunken log2 fold change of -0.321

`RRIRRRPPRLPRPRPRPDQQPRP` yielded shrunken log2 fold change of 0.0145

`RRIRVRPPRLPRPRPRPFRKPRP` yielded shrunken log2 fold change of -0.0712

`RRIRRRPPRLPRPRPRPCMKPRP` yielded shrunken log2 fold change of -0.0288

`RRIRTRPPRLPRPRPRPNVFPRP` yielded shrunken log2 fold change of 0.0305

`RRIRGRPPRLPRPRPRPRPMPRP` yielded shrunken log2 fold change of 1.51

`RRIRIRPPRLPRPRPRPCELPRP` yielded shrunken log2 fold change of -0.254

`RRIRGRPPRLPRPRPRPVVPPRP` yielded shrunken log2 fold change of 0.338

`RRIRDRPPRLPRPRPRPHFYPRP` yielded shrunken log2 fold change of -0.321

`RRIRERPPRLPRPRPRPCMQPRP` yielded shrunken log2 fold change of -0.133

`RRIRPRPPRLPRPRPRPRTWPRP` yielded shrunken log2 fold change of 0.537

`RRIRVRPPRLPRPRPRPFQCPRP` yielded shrunken log2 fold change of -0.0433

`RRIRYRPPRLPRPRPRPLPLPRP` yielded shrunken log2 fold change of -0.197
